Property: pKi; scope: individual compounds
assay.summary: Inhibition of wild-type full-length HCV genotype 1a NS3 protease using Ac-DED(Edans)EEAbu-psi-[COO]ASK(Dabcyl)-NH2 as substrate by FRET assay
Set-up: species or system Hepatitis C virus subtype 1a
pKi: −log10 of the molar value.
measured.endpoint: pKi

compound=CC(C)(C)NC(=O)Nc1nc(Cl)c(Cc2ccccc2)n(CC(=O)O)c1=O measured_endpoint=pKi relation_operator=< assay_value=5.00
compound=CC(C)(C)NC(=O)Nc1nc(Cl)c(CCC2CCCCC2)n(CC(=O)Nc2cccc(C(=O)NS(=O)(=O)c3ccc(C(F)(F)F)cc3)c2)c1=O measured_endpoint=pKi relation_operator== assay_value=6.77
compound=CC(C)(C)NC(=O)Nc1nc(Cl)c(Cc2cccc3ccccc23)n(CC(=O)Nc2cccc(S(=O)(=O)NC(=O)c3ccc(C(F)(F)F)cc3)c2)c1=O measured_endpoint=pKi relation_operator== assay_value=6.72
compound=CC(C)(C)NC(=O)Nc1nc(Cl)c(CCC2CCCCC2)n(CC(=O)Nc2cc(C(=O)NS(=O)(=O)c3ccc(C(F)(F)F)cc3)cc(C(F)(F)F)c2)c1=O measured_endpoint=pKi relation_operator== assay_value=7.00
compound=CC(C)(C)NC(=O)Nc1nc(Cl)c(CCC2CCCCC2)n(CC(=O)Nc2cc(F)ccc2C(=O)NS(=O)(=O)c2ccc(C(F)(F)F)cc2)c1=O measured_endpoint=pKi relation_operator== assay_value=6.96
compound=CN(C(=O)c1ccccc1NC(=O)Cn1c(CCC2CCCCC2)c(Cl)nc(NC(=O)NC(C)(C)C)c1=O)S(=O)(=O)c1ccc(C(F)(F)F)cc1 measured_endpoint=pKi relation_operator== assay_value=6.59
compound=CC(C)(C)NC(=O)Nc1nc(Cl)c(Cc2cccc3ccccc23)n(CC(=O)Nc2ccc(S(=O)(=O)NC(=O)c3ccc(C(F)(F)F)cc3)cc2)c1=O measured_endpoint=pKi relation_operator== assay_value=6.77
compound=COC(=O)c1ccccc1NC(=O)Cn1c(CCC2CCCCC2)c(Cl)nc(NC(=O)NC(C)(C)C)c1=O measured_endpoint=pKi relation_operator== assay_value=6.92
compound=CC(C)(C)NC(=O)Nc1nc(Cl)c(CCC2CCCCC2)n(CC(=O)Nc2ccccc2C(=O)NS(=O)(=O)c2ccccc2C(F)(F)F)c1=O measured_endpoint=pKi relation_operator== assay_value=6.89
compound="CCCC(NC(=O)[C@@H]1[C@H]2CCC[C@H]2CN1C(=O)[C@@H](NC(=O)[C@@H](NC(=O)c1cnccn1)C1CCCCC1)C(C)(C)C)C(=O)C(=O)NC1CC1 (some centres undefined)" measured_endpoint=pKi relation_operator== assay_value=7.82
compound="CC[C@H](C)[C@H](NC(=O)[C@H](CC(C)C)NC(=O)C(CC(C(=O)O)C(=O)O)NC(=O)[C@H](CC(=O)O)NC(C)=O)C(=O)N[C@@H](CC1CCCCC1)C(=O)N[C@@H](CS)C(=O)O (single isomer, unassigned)" measured_endpoint=pKi relation_operator== assay_value=7.04
compound="CC(C)(C)NC(=O)Nc1nc(Cl)c(Cc2ccccc2)n(CC(=O)NC2(C(=O)NS(=O)(=O)c3ccc(C(F)(F)F)cc3)CC(OCc3ccccc3)C2)c1=O (centres undefined)" measured_endpoint=pKi relation_operator== assay_value=6.82
compound=Cc1ccc(S(=O)(=O)NC(=O)c2ccccc2NC(=O)Cn2c(CCC3CCCCC3)c(Cl)nc(NC(=O)NC(C)(C)C)c2=O)cc1 measured_endpoint=pKi relation_operator== assay_value=6.92
compound="CC(C)(C)NC(=O)Nc1nc(Cl)c(CCC2CCCCC2)n(CC(=O)NC2(C(=O)NS(=O)(=O)c3ccc(C(F)(F)F)cc3)CC(OCc3ccccc3)C2)c1=O (centres undefined)" measured_endpoint=pKi relation_operator== assay_value=7.15
compound=CC(C)(C)NC(=O)Nc1nc(Cl)c(CCC2CCCCC2)n(CC(=O)Nc2ccc(C(=O)NS(=O)(=O)c3ccc(C(F)(F)F)cc3)cc2)c1=O measured_endpoint=pKi relation_operator== assay_value=6.59
compound=CC(C)(C)NC(=O)Nc1nc(Cl)c(CCC2CCCCC2)n(CC(=O)Nc2ccccc2C(=O)O)c1=O measured_endpoint=pKi relation_operator== assay_value=6.92
compound=CC(C)(C)NC(=O)Nc1nc(Cl)c(CCC2CCCCC2)n(CC(=O)Nc2ccc(CC(=O)NS(=O)(=O)c3ccc(C(F)(F)F)cc3)cc2)c1=O measured_endpoint=pKi relation_operator== assay_value=6.85
compound=CC(C)(C)NC(=O)Nc1nc(Cl)c(CCC2CCCCC2)n(CC(=O)Nc2cc(-c3cncnc3)ccc2C(=O)NS(=O)(=O)c2ccc(C(F)(F)F)cc2)c1=O measured_endpoint=pKi relation_operator== assay_value=6.92
compound=CC(C)(C)NC(=O)Nc1nc(Cl)c(CCC2CCCCC2)n(CC(=O)Nc2cc(Br)ccc2C(=O)NS(=O)(=O)c2ccc(C(F)(F)F)cc2)c1=O measured_endpoint=pKi relation_operator== assay_value=6.82
compound=CC(C)(C)NC(=O)Nc1nc(Cl)c(CCC2CCCCC2)n(CC(=O)Nc2ccccc2C(=O)NS(=O)(=O)c2cccc(C(F)(F)F)c2)c1=O measured_endpoint=pKi relation_operator== assay_value=6.64
compound=C=Cc1ccc(C(=O)NS(=O)(=O)c2ccc(C(F)(F)F)cc2)c(NC(=O)Cn2c(CCC3CCCCC3)c(Cl)nc(NC(=O)NC(C)(C)C)c2=O)c1 measured_endpoint=pKi relation_operator== assay_value=6.92
compound="CC(C)(C)NC(=O)Nc1ncc(Cc2ccccc2)n(CC(=O)NC2(C(=O)NS(=O)(=O)c3ccc(C(F)(F)F)cc3)CC(O)C2)c1=O (centres undefined)" measured_endpoint=pKi relation_operator== assay_value=6.35
compound=CC(C)(C)NC(=O)Nc1nc(Cl)c(Cc2cccc3ccccc23)n(CC(=O)Nc2ccccc2S(=O)(=O)NC(=O)c2ccc(C(F)(F)F)cc2)c1=O measured_endpoint=pKi relation_operator== assay_value=6.74
compound=CC(C)(C)NC(=O)Nc1nc(Cl)c(CCc2ccccc2)n(CC(=O)Nc2ccccc2S(=O)(=O)NC(=O)c2ccc(C(F)(F)F)cc2)c1=O measured_endpoint=pKi relation_operator== assay_value=6.77

Value source: ChEMBL document CHEMBL3797198
